We begin with a simple list: items and their reported inhibition.
Biological target: Serine/threonine-protein kinase MRCK alpha (Homo sapiens) (UniProt Q5VT25);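 note: each value is an averaged percent inhibition of MRCK alpha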
Sequence (Q5VT25 whole entry): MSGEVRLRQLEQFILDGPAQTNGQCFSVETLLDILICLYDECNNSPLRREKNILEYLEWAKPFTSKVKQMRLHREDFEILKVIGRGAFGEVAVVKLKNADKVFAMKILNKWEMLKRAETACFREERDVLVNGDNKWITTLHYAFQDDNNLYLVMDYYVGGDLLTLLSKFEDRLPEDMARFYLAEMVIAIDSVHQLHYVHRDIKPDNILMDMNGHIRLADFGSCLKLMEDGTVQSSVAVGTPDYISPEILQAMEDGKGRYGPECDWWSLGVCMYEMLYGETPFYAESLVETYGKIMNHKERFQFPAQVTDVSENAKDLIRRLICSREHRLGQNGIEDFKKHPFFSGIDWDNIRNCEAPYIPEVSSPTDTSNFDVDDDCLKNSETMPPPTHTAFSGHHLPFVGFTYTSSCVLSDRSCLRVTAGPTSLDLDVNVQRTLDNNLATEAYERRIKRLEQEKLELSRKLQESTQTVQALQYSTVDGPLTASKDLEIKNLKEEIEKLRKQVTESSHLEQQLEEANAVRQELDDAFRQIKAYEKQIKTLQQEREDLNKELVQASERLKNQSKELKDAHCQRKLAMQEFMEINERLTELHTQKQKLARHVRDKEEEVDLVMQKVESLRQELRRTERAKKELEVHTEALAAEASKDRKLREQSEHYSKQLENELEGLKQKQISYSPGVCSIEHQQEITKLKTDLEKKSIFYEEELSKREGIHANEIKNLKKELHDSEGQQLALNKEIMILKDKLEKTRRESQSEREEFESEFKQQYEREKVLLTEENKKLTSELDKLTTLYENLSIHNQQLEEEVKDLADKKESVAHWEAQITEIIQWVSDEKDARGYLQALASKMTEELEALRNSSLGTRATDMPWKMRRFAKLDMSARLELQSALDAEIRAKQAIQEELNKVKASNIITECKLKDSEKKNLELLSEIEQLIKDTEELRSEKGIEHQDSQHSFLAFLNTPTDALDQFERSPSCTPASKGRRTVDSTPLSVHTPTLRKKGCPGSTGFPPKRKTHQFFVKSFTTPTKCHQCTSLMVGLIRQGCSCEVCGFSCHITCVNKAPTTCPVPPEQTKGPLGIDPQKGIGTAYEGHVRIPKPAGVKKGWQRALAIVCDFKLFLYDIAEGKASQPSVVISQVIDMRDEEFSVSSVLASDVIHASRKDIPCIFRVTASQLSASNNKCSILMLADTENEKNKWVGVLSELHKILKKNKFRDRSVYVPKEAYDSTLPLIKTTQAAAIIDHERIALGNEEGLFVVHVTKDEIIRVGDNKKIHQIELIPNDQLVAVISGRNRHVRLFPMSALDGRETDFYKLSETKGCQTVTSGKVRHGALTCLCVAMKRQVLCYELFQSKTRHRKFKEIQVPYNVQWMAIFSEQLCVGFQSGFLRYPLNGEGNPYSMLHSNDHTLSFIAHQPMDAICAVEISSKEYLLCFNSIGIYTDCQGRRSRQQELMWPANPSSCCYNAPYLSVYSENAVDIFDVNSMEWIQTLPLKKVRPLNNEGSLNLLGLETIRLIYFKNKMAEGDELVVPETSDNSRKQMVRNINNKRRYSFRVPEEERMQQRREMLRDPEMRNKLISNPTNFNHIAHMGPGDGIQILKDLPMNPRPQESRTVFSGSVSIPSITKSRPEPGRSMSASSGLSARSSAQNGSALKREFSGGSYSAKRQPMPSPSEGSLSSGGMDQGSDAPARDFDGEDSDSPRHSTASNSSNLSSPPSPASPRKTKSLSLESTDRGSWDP
Conditions: at 1 µM
Unit % implied. Number only.

The examples below pair each entry with its known result.
[
  {
    "SMILES_STRUCTURE": "COc1cccc(-n2ncc3c(N/N=C/c4ccncc4)ncnc32)c1",
    "inhibition, %": 3.78
  },
  {
    "SMILES_STRUCTURE": "NS(=O)(=O)c1ccc(N/C=C2\\C(=O)Nc3ccc4ncsc4c32)cc1",
    "inhibition, %": 10.5
  },
  {
    "SMILES_STRUCTURE": "COc1cc2c(cc1Nc1nc(Nc3ccsc3C(N)=O)c3cc[nH]c3n1)N(C(=O)CN(C)C)CCC2",
    "inhibition, %": -0.12
  },
  {
    "SMILES_STRUCTURE": "CCn1c(-c2nonc2N)nc2c(C#CC(C)(C)O)ncc(OCC3CCNCC3)c21",
    "inhibition, %": 33.2
  }
]

Ask | Endpoint output: inhibition of CCn1c(-c2nonc2N)nc2c(C#CCN)ncc(OCCCN)c21 . Value?
Reply | 13.4

Ask | For NS(=O)(=O)c1ccc(-c2ccc3c(NC(=O)C4CC4)n[nH]c3c2)cc1 then?
Reply | -1.48

Ask | For Cc1cc(-c2ccco2)cc(C)c1/C=C/c1cncc(-c2nn[nH]n2)c1 then?
Reply | -3.4

Ask | For Nc1nonc1-c1nc2cnccc2n1C1CCCCC1 then?
Reply | 65.9

Ask | For COc1cc(C=NNc2ncnc3c2cnn3Cc2ccccc2)ccc1O then?
Reply | -1.07

* * *

We begin with a simple list: items and their reported inhibition.
Biological target: Macrophage colony-stimulating factor 1 receptor (Homo sapiens) (UniProt P07333);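 note: value reported is the mean inhibition of FMS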
Sequence (P07333 whole entry): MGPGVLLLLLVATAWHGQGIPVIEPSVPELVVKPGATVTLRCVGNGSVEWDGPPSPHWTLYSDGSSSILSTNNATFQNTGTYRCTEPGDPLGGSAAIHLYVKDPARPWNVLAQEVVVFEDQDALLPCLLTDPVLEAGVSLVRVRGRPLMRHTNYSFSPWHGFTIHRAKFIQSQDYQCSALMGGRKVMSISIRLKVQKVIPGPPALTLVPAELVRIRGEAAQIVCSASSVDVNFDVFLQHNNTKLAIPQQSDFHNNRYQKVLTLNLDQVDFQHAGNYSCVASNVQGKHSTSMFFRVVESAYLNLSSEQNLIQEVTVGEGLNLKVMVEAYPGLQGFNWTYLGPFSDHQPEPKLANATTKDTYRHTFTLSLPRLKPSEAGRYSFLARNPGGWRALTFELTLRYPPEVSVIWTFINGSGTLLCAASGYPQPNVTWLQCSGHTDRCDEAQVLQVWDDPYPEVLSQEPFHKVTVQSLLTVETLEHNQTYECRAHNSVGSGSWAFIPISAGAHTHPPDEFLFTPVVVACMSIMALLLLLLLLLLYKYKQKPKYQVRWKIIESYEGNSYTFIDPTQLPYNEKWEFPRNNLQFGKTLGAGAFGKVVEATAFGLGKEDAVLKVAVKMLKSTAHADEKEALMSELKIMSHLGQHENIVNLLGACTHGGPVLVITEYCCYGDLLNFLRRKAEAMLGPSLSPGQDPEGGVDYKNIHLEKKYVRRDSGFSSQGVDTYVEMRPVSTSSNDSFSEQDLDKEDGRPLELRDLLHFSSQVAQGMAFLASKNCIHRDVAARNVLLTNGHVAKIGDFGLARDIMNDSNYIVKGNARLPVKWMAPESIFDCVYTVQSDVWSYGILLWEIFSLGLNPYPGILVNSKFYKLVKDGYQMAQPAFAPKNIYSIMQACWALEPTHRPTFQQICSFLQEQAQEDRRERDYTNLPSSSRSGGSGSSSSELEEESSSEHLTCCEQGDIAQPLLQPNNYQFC
Conditions: at 0.1 µM
Unit % implied. Number only.

Ask | Endpoint output: inhibition of CCn1c(-c2nonc2N)nc2c(C#CCN)ncc(OCCCN)c21 . Value?
Reply | -1.23

Ask | For COc1cc2c(cc1Nc1nc(Nc3ccsc3C(N)=O)c3cc[nH]c3n1)N(C(=O)CN(C)C)CCC2 then?
Reply | 55

Ask | For CCn1c(-c2nonc2N)nc2c(C#CC(C)(C)O)ncc(OCC3CCNCC3)c21 then?
Reply | 1.63

Ask | For Nc1nonc1-c1nc2cnccc2n1C1CCCCC1 then?
Reply | 27.4

Ask | For NS(=O)(=O)c1ccc(-c2ccc3c(NC(=O)C4CC4)n[nH]c3c2)cc1 then?
Reply | 0.18

* * *

We begin with a simple list: items and their reported inhibition.
Target: Phosphorylase b kinase gamma catalytic chain, skeletal muscle/heart isoform (Homo sapiens);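 note: values are averaged percent inhibition of PHKG1 kinase activity, from the GSK PKIS inhibitor-set screen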
Conditions: at 0.1 µM
Unit % implied. Number only.

Ask | Endpoint output: inhibition of COc1cc2c(cc1Nc1nc(Nc3ccsc3C(N)=O)c3cc[nH]c3n1)N(C(=O)CN(C)C)CCC2 . Value?
Reply | 8.54

Ask | For NS(=O)(=O)c1ccc(N/C=C2\C(=O)Nc3ccc4ncsc4c32)cc1 then?
Reply | 15.2

* * *

We begin with a simple list: items and their reported inhibition.
Target: Tyrosine-protein kinase Lyn (Homo sapiens) (UniProt P07948)
Sequence (P07948 2-512 limits assumed): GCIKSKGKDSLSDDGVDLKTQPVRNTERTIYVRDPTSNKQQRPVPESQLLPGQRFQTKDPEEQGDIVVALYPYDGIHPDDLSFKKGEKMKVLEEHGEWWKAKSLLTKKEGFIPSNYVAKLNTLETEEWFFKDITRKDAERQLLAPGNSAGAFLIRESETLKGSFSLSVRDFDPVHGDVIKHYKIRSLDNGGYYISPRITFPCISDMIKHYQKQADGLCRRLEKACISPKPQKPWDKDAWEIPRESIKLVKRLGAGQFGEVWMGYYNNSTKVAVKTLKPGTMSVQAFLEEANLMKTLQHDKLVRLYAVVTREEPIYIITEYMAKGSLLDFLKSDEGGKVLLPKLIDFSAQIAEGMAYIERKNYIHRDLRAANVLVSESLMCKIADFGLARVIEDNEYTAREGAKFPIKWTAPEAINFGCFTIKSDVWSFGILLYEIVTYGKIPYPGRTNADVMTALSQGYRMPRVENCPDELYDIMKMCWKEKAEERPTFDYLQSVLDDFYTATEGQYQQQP
Settings: at 0.1 µM
Description: GSK_PKIS: LYN A (splice variant) mean inhibition at 0.1 uM [Nanosyn]
Unit % implied. Number only.

The examples below pair each entry with its known result.
[
  {
    "SMILES_STRUCTURE": "Nc1nonc1-c1nc2cnccc2n1C1CCCCC1",
    "OBS_VALUE": -2.05
  },
  {
    "SMILES_STRUCTURE": "CCn1c(-c2nonc2N)nc2c(C#CC(C)(C)O)ncc(OCC3CCNCC3)c21",
    "OBS_VALUE": 3.39
  },
  {
    "SMILES_STRUCTURE": "CCn1c(-c2nonc2N)nc2c(C#CC(C)(C)O)nc(O[C@@H](CN)c3ccccc3)cc21",
    "OBS_VALUE": 2.08
  }
]

Ask | Give the reported inhibition for CCn1c(-c2nonc2N)nc2c(C#CC(C)(C)O)ncc(OC[C@@H]3CCCN3)c21 (system: Tyrosine-protein kinase Lyn (Homo sapiens) (UniProt P07948)).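 Note: mean inhibition of the LYN A splice variant of the kinase.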
Reply | 2.35

Ask | For CCn1c(-c2nonc2N)nc2c(C#CCN)ncc(OCCCN)c21 then?
Reply | 0.47

Ask | For Fc1ccc(-c2ncn(C3CCNCC3)c2-c2ccnc(Oc3ccccc3)n2)cc1 then?
Reply | 2.38

Ask | For NC(=O)c1sc(-n2cnc3cc(C(F)(F)F)ccc32)cc1OCc1ccccc1Br then?
Reply | 3.08

* * *

Biological target: Serine/threonine-protein kinase Sgk1 (Homo sapiens) (UniProt O00141);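 note: mean percent inhibition of SGK1, from the GSK PKIS screening panel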
Sequence (O00141 whole entry): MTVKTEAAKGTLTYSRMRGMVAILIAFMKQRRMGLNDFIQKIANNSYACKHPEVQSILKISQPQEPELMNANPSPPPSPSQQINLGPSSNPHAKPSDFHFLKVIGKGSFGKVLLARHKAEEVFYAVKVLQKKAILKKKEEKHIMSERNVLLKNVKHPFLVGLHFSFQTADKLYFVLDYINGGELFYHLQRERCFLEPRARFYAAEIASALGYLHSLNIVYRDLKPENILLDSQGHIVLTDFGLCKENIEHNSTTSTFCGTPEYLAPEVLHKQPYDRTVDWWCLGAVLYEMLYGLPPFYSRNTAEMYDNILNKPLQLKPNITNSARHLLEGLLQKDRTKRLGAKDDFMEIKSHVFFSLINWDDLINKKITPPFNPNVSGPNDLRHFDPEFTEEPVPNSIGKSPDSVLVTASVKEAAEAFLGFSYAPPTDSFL
Conditions: at 1 µM
We begin with a simple list: items and their reported inhibition.
Unit % implied. Number only.

Ask | Endpoint output: inhibition of COc1cccc(COc2cc(-n3cnc4ccccc43)sc2C(N)=O)c1 . Value?
Reply | 0.63

Ask | For CCn1c(-c2nonc2N)nc2c(C#CCN)ncc(OCCCN)c21 then?
Reply | 5.38

Ask | For Cc1cc(-c2ccco2)cc(C)c1/C=C/c1cncc(-c2nn[nH]n2)c1 then?
Reply | 0.73

Ask | For NC(=O)c1sc(-n2cnc3cc(C(F)(F)F)ccc32)cc1OCc1ccccc1Br then?
Reply | 2.43

Ask | For CCn1c(-c2nonc2N)nc2c(C#CC(C)(C)O)nc(O[C@@H](CN)c3ccccc3)cc21 then?
Reply | 34.2

Ask | For CCn1c(-c2nonc2N)nc2c(C#CC(C)(C)O)ncc(OCC3CCNCC3)c21 then?
Reply | 10.5

Ask | For NS(=O)(=O)c1ccc(N/C=C2\C(=O)Nc3ccc4ncsc4c32)cc1 then?
Reply | 47.5

Ask | For CCn1c(-c2nonc2N)nc2c(C#CC(C)(C)O)ncc(OC[C@@H]3CCCN3)c21 then?
Reply | 2.09

* * *

Biological target: Ribosomal protein S6 kinase alpha-3 (Homo sapiens) (UniProt P51812);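 note: reported value is a mean inhibition figure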
Sequence (P51812 whole entry): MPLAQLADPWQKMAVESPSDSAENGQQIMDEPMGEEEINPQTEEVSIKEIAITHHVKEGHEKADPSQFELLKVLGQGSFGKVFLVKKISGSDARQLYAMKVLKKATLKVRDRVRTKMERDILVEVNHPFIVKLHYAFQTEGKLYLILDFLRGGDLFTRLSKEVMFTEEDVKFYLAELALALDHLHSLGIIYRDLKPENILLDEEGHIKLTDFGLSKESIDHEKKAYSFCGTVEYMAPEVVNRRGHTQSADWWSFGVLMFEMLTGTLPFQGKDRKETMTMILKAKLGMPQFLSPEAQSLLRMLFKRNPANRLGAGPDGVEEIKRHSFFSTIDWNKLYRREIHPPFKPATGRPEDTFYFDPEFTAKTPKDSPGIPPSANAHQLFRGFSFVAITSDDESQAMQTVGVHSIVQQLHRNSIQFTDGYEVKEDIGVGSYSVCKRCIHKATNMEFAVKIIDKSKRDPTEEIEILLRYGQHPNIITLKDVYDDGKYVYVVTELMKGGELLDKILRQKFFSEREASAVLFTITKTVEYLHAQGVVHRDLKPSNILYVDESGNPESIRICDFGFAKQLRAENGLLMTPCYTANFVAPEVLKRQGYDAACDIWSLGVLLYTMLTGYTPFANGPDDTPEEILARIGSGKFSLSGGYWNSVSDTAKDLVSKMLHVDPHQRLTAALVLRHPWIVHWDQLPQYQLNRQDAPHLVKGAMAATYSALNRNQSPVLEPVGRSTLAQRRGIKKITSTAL
Conditions: at 0.1 µM
OBSERVABLE: inhibition (%)
Unit % implied. Number only.

The examples below pair each entry with its known result.
[
  {
    "SMILES_STRUCTURE": "Fc1ccc(-c2ncn(C3CCNCC3)c2-c2ccnc(Oc3ccccc3)n2)cc1",
    "inhibition (%)": -1.31
  },
  {
    "SMILES_STRUCTURE": "CCn1c(-c2nonc2N)nc2c(C#CC(C)(C)O)ncc(OC[C@@H]3CCCN3)c21",
    "inhibition (%)": 3.35
  }
]

Ask | Endpoint output: inhibition of Nc1nonc1-c1nc2cnccc2n1C1CCCCC1 . Value?
Reply | 40.9

Ask | For CCn1c(-c2nonc2N)nc2c(C#CC(C)(C)O)ncc(OCC3CCNCC3)c21 then?
Reply | 4.16

Ask | For COc1cc(C=NNc2ncnc3c2cnn3Cc2ccccc2)ccc1O then?
Reply | 1.86

* * *

We begin with a simple list: items and their reported inhibition.
Target: Aurora kinase B (Homo sapiens) (UniProt Q96GD4);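 note: reported percent inhibition is a mean value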
Sequence (Q96GD4 whole entry): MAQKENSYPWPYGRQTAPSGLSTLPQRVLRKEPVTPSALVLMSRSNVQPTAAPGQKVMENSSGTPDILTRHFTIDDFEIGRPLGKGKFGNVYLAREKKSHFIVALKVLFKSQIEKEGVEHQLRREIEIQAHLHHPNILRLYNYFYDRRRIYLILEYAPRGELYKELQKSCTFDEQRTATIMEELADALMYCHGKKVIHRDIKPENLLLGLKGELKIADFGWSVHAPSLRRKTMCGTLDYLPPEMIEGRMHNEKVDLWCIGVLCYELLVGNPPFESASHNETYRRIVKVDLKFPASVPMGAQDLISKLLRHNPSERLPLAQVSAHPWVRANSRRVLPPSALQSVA
Conditions: at 1 µM
Unit % implied. Number only.

[
  {
    "SMILES_STRUCTURE": "CCn1c(-c2nonc2N)nc2c(C#CC(C)(C)O)ncc(OC[C@@H]3CCCN3)c21",
    "UNIT_SYMBOL": "%",
    "inhibition": 0.87
  },
  {
    "SMILES_STRUCTURE": "Nc1nonc1-c1nc2cnccc2n1C1CCCCC1",
    "UNIT_SYMBOL": "%",
    "inhibition": 7.52
  },
  {
    "SMILES_STRUCTURE": "CCn1c(-c2nonc2N)nc2c(C#CC(C)(C)O)ncc(OCC3CCNCC3)c21",
    "UNIT_SYMBOL": "%",
    "inhibition": 0.45
  },
  {
    "SMILES_STRUCTURE": "Cc1cc(-c2ccco2)cc(C)c1/C=C/c1cncc(-c2nn[nH]n2)c1",
    "UNIT_SYMBOL": "%",
    "inhibition": 3.63
  },
  {
    "SMILES_STRUCTURE": "COc1cc(C=NNc2ncnc3c2cnn3Cc2ccccc2)ccc1O",
    "UNIT_SYMBOL": "%",
    "inhibition": 34.4
  },
  {
    "SMILES_STRUCTURE": "NS(=O)(=O)c1ccc(N/C=C2\\C(=O)Nc3ccc4ncsc4c32)cc1",
    "UNIT_SYMBOL": "%",
    "inhibition": 55.2
  }
]

Ask | Endpoint output: inhibition of COc1cc2c(cc1Nc1nc(Nc3ccsc3C(N)=O)c3cc[nH]c3n1)N(C(=O)CN(C)C)CCC2 . Value?
Reply | 2.92

* * *

Target: Serine/threonine-protein kinase pim-2 (Homo sapiens) (UniProt Q9P1W9);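 note: reported value is the mean percent inhibition of PIM2, measured in the GSK PKIS kinase inhibitor set screen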
Sequence (Q9P1W9 whole entry, looked up): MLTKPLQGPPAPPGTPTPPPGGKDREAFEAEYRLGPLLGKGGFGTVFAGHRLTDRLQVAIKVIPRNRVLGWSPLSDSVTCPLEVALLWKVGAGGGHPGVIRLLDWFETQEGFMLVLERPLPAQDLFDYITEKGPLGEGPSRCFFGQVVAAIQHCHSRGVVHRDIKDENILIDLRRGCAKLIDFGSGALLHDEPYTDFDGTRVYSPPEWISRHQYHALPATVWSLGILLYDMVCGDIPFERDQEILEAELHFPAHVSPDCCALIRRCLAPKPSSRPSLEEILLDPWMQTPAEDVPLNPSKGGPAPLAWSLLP
Conditions: at 0.1 µM
OBSERVABLE: inhibition (%)
Unit % implied. Number only.

[
  {
    "SMILES_STRUCTURE": "COc1cc2c(cc1Nc1nc(Nc3ccsc3C(N)=O)c3cc[nH]c3n1)N(C(=O)CN(C)C)CCC2",
    "inhibition (%)": 0.47
  },
  {
    "SMILES_STRUCTURE": "Nc1nonc1-c1nc2cnccc2n1C1CCCCC1",
    "inhibition (%)": 5.24
  },
  {
    "SMILES_STRUCTURE": "CCn1c(-c2nonc2N)nc2c(C#CC(C)(C)O)ncc(OC[C@@H]3CCCN3)c21",
    "inhibition (%)": 1.1
  },
  {
    "SMILES_STRUCTURE": "Cc1cc(-c2ccco2)cc(C)c1/C=C/c1cncc(-c2nn[nH]n2)c1",
    "inhibition (%)": 0.57
  },
  {
    "SMILES_STRUCTURE": "COc1cccc(-n2ncc3c(N/N=C/c4ccncc4)ncnc32)c1",
    "inhibition (%)": 0.77
  }
]

Then this molecule:
Ask | Endpoint output: inhibition of CCn1c(-c2nonc2N)nc2c(C#CCN)ncc(OCCCN)c21 . Value?
Reply | 3.26

Sourced from ChEMBL document CHEMBL1961873
